From: the antibiotic and cytotoxicity screens of Wong et al. (2023)

Tested on: HSkMC (human skeletal muscle cells)
MEASUREMENT_NOTES: cytotoxicity call (relative viability < 0.9)
RECORDED_CONDITIONS: 10 µM
About 1,500 (3.8%) of roughly 39,000 compounds were called active. For the sample, actives were picked, then their nearest neighbours and some compounds at random.
Reply using exactly one outcome from 1 (yes) (active), 0 (no) (inactive)

For C[C@@H]1CN([C@H](C)CO)C(=O)Cc2cc(NS(=O)(=O)c3ccc(F)cc3)ccc2O[C@@H]1CN(C)Cc1ccc(Cl)c(Cl)c1 , what call appears in the results of this test?
1 (yes)

Others:
For CNC(=O)CN1CCO[C@H]2CN(C(=O)c3cnccn3)C[C@@H]21 , what call appears in the results of this test?
0 (no)

For C[C@@H]1CCCCO[C@@H](CN(C)C(=O)C2CCCCC2)[C@@H](C)CN([C@@H](C)CO)C(=O)c2cc(NC(=O)C3CCCCC3)ccc2O1 , what call appears in the results of this test?
0 (no)

For COc1ccc(NC(=O)N(C)C[C@H]2OCCCC[C@H](C)Oc3ccc(NC(=O)c4ccccc4)cc3C(=O)N([C@@H](C)CO)C[C@@H]2C)cc1 , what call appears in the results of this test?
0 (no)

For COc1ccc(NC(=O)N(C)C[C@H]2OCCCC[C@@H](C)Oc3ccc(NS(=O)(=O)c4ccc(F)cc4)cc3C(=O)N([C@@H](C)CO)C[C@H]2C)cc1 , what call appears in the results of this test?
0 (no)

For C[C@@H]1CN([C@@H](C)CO)C(=O)Cc2cc(NS(=O)(=O)c3ccc(F)cc3)ccc2O[C@H]1CN(C)Cc1ccc(Cl)c(Cl)c1 , what call appears in the results of this test?
0 (no)

For C[C@@H]1CN([C@H](C)CO)C(=O)Cc2cc(NS(=O)(=O)c3ccc(F)cc3)ccc2O[C@H]1CN(C)Cc1ccc(Cl)c(Cl)c1 , what call appears in the results of this test?
0 (no)
